Source listed as PubChem BioAssay (NCI).

Tested on: SN12C renal
Assay: NCI tumour cell line growth inhibition, 48 h
Listed molecules paired with reported GI50
Property name: GI50

| Molecule | Result |
| --- | --- |
| COc1ccc(C2=C(c3ccc(OC)cc3)C(=O)N3CCCC3C2)cc1 (stereo not given) | 22.5 µM |
| COc1ccccc1Nc1ncc(-c2ccccc2)o1 | > 25 µM |
| COc1ccc(C(O)(CCC(C)C)C(CN2CCOCC2)c2ccc(Cl)cc2)cc1 (stereo not given) | 13.4 µM |
| COC(=O)C1=CN(CC2=CC(=O)C(C)=CC2=O)C=C(C(=O)OC)C1c1cccc(OC)c1 | 22.9 µM |
| O=[P@@]1(c2ccccc2)O[C@H](COCc2ccccc2)[C@@H](OCc2ccccc2)[C@H](OCc2ccccc2)[C@H]1NCc1ccccc1 | 1.83 µM |

----------
Test system: HOP-62 NSCLC
Assay: NCI tumour cell line growth inhibition, 48 h

| Compound | TGI |
| --- | --- |
| C=CCN(C(=O)CNC(=O)C(F)(F)F)c1cc(OCc2ccccc2)c2c(c1)c(C)cn2S(=O)(=O)c1ccccc1 | > 100 µM |
| COc1ccc(/C=C(\C(C)=O)C(=O)Nc2ccccc2)cc1 | > 100 µM |
| c1ccc2c(c1)SCCC2NC1=NCCO1 (configuration not stated) | > 100 µM |
| COCOC1C=CCCCC2=CC(C)=C(CC1)O2 (configuration not stated) | > 100 µM |
| Cc1ccc(S(=O)OCc2c(C)c(C)c(COS(=O)c3ccc(C)cc3)c(C)c2C)cc1 (configuration not stated) | > 100 µM |
| Cc1ccc(NC(=O)CCc2nnc(N)o2)cc1 | > 100 µM |
| Oc1ccc2ccccc2c1N=Nc1ccc(Br)cc1 | > 100 µM |
| CS/C(=C(\S)c1ccccc1)c1ccccc1 | > 100 µM |
| CCOC(=O)NNC(=O)NCCCCNC(=O)NNC(=O)OCC | > 100 µM |
| FC(F)(F)c1ccc2c(c1)nc(-c1ccc(Cl)cc1)n2CC1CCCN2CCCCC12 (configuration not stated) | 28.6 µM |
| COC(=O)C1=C(C(=O)OC)C2=S(SC3=C2CCCC3)S1 (configuration not stated) | > 100 µM |
| CN(C)c1ccc(N=Nc2ccccn2)c(O)c1 | > 54 µM |
| CC(C)=CC1CC(=[N+]=[N-])C(=O)C1(C)C (configuration not stated) | > 100 µM |
| O=C(Cn1c(-c2ccccc2)cc2ccccc21)N1CCCC1 | > 100 µM |
| CC1=C(/C=C/C(C)=C/C=C/C(C)=C/C(=O)OC2CC(n3cc(F)c(=O)[nH]c3=O)OC2CO)C(C)(C)CCC1 (configuration not stated) | 13.7 µM |
| C=C(C)C1CCC2(C)CC1c1c(c(C)cc3c1[nH]c1ccccc13)O2 (configuration not stated) | > 25 µM |
| O=C(Nc1ccc(Cl)c(C(F)(F)F)c1)c1ccc(NC2=C(Cl)C(=O)N(Cc3ccccc3)C2=O)cc1 | 46.1 µM |
| CC1(C)OC[C@@H]([C@H](O)C2C=CC(=O)S2)O1 (some centres not stated) | > 100 µM |
| Oc1ccc(Nc2c3ccccc3nc3occ(Cl)c23)cc1 | 36.2 µM |
| COC(=O)C(C(=O)Cc1ccccc1[N+](=O)[O-])C(=O)OC | > 100 µM |
| BrCc1cccc(C[P+](c2ccccc2)(c2ccccc2)c2ccccc2)c1 | > 100 µM |
| Cc1nc2cc(Nc3nc(Nc4ccc(F)cc4)nc(-c4cccs4)n3)ccc2n1Cc1ccccc1 | > 100 µM |

----------
Test system: SK-MEL-28 melanoma
Assay: NCI tumour cell line growth inhibition, 48 h
Reported TGI values for the following compounds.

| Compound | TGI |
| --- | --- |
| Cc1nc2cc(Nc3nc(Nc4ccc(F)cc4)nc(-c4cccs4)n3)ccc2n1Cc1ccccc1 | > 100 µM |
| COC(C)(C)OCCN1CCN(CCN2C3=C(C=C(C(C)=O)C3)Sc3ccccc32)CC1 | 32.9 µM |
| C=C1C(=O)OC2CC(C)C(C(O)CC(C)O)=CCC12 (stereo not given) | 23.1 µM |
| Cn1c(=O)c(Oc2ccc(F)cc2)cc2cnc(NC3CCOCC3)nc21 | > 25 µM |
| Cc1nn(C(=O)CC(=O)Nc2ccc(Cl)cc2)c(C)c1N=Nc1ccccc1C(=O)O | > 100 µM |
| COc1ccc(C(O)(CCC(C)C)C(CN2CCOCC2)c2ccc(Cl)cc2)cc1 (stereo not given) | 34.4 µM |
| COc1ccc(/C=C(\C(C)=O)C(=O)Nc2ccccc2)cc1 | > 100 µM |
| C=C(Nc1nc2ccc(C)cc2s1)C(=O)C(CC)C(=O)C(CC)CC1C(=O)NC(=O)NC1=O (stereo not given) | > 100 µM |
| BrCc1cccc(C[P+](c2ccccc2)(c2ccccc2)c2ccccc2)c1 | > 100 µM |
| CCCOC(=O)CNC(=O)OC(C)(C)C | > 100 µM |

----------
Test system: SNB-19 CNS
Assay: NCI tumour cell line growth inhibition, 48 h
Property name: log10(TGI) (log10 of the value in µM)

| Compound | log10(TGI) |
| --- | --- |
| FC(F)(F)c1ccc2c(c1)nc(-c1ccc(Cl)cc1)n2CC1CCCN2CCCCC12 (stereo not given) | 1.49 |
| CN1CC[C@@H](c2c(O)cc(O)c3c(=O)cc(-c4ccc(C(F)(F)F)cc4Cl)oc23)[C@@H]1CO | 1.80 |
| COc1ccc(C(O)(CCC(C)C)C(CN2CCOCC2)c2ccc(Cl)cc2)cc1 (stereo not given) | 1.72 |
| COc1ccc(-c2nc3ncccn3c2-c2ccc(SC)cc2)cc1 | 0.77 |
| CCOC(=O)c1c(-c2ccc(OC)cc2)c(C#N)c2c(C#N)c(N)nn2c1N | 1.35 |

----------
Tested on: SNB-75 CNS
Assay: NCI tumour cell line growth inhibition, 48 h

| Compound | System | TGI |
| --- | --- | --- |
| C=C(Nc1nc2ccc(C)cc2s1)C(=O)C(CC)C(=O)C(CC)CC1C(=O)NC(=O)NC1=O (stereo not drawn) | SNB-75 CNS | > 100 µM |
| COC(=O)c1ccc(-c2c(C#N)[n+](=O)c3cc(Cl)c(Cl)cc3n2[O-])cc1 | SNB-75 CNS | 39.8 µM |
| CSc1ccccc1C#C/C=C\C#Cc1ccccc1N | SNB-75 CNS | 81 µM |
| CCOC(=O)Cc1ccc(Nc2nc3ccccc3nc2C(=O)OCC)cc1 | SNB-75 CNS | 38.3 µM |
| COC(=O)C(C(=O)Cc1ccccc1[N+](=O)[O-])C(=O)OC | SNB-75 CNS | > 100 µM |
| CC(Oc1ccc(Cl)cc1Cl)C(=O)NN1C(=O)CSC1c1ccccc1 (stereo not drawn) | SNB-75 CNS | > 100 µM |
| Nc1ccn([C@H]2CO[C@@H](CO)[C@@H]2O)c(=O)n1 | SNB-75 CNS | > 100 µM |
| O=C(CC(C(=O)c1ccsc1)c1ccccc1)c1ccccc1 (stereo not drawn) | SNB-75 CNS | > 100 µM |
| CN(C)/N=C1/CCC(C(F)(F)F)(C(F)(F)F)O1 | SNB-75 CNS | 97.5 µM |
| CN(CCN(C)C(=O)CCn1cc(F)c(=O)[nH]c1=O)C(=O)CCn1cc(F)c(=O)[nH]c1=O | SNB-75 CNS | > 100 µM |
| COc1ccc(-c2cc(/C=C/C(=O)c3ccc(OC)c(OC)c3)[nH]n2)cc1 | SNB-75 CNS | 3.84 µM |
| Cc1nc2ccc(F)cc2c2c1CCN2c1ccc(Cl)cc1 | SNB-75 CNS | > 100 µM |
| N=C1C(=N)c2ccccc2-c2ccccc21.N=C1C(=N)c2ccccc2-c2ccccc21.N=C1C(=N)c2ccccc2-c2ccccc21.[Cl-].[Ru+2] | SNB-75 CNS | 4.25 µM |
| CC(C)(C)[Si](C)(C)Oc1ccc(C2CNC(=O)C23CCC(=O)N3Cc2ccccc2)cc1 (stereo not drawn) | SNB-75 CNS | 32.1 µM |
| CCOC(=O)/C=C(/C(=O)OCC)n1cnc2c(=O)[nH]c(NC(C)=O)nc21 | SNB-75 CNS | > 100 µM |
| COc1ccc(N=NC(=O)NC(CC(C)C)C(=O)NC(C)C(=O)O)cc1 (stereo not drawn) | SNB-75 CNS | > 100 µM |
| O=C1C=C(NCCOCCO)C(=O)c2c(O)ccc(O)c21 | SNB-75 CNS | > 100 µM |
| [N-]=[N+]=N/C1=C/CCCCC(=O)C1 | SNB-75 CNS | > 100 µM |
| C=CCc1ccc(O)c(-c2ccc(O)c(CC=C)c2)c1 | SNB-75 CNS | > 46.6 µM |
| O=S(=O)(c1ccccc1)N1N=C2c3ccccc3CCC[C@H]2C1c1ccccc1 (stereo partly drawn) | SNB-75 CNS | > 100 µM |
| O=c1oc2c/c(=C\c3ccc([N+](=O)[O-])cc3)c(=O)c3cccc1c3-2 | SNB-75 CNS | 88.6 µM |
| C[C@H](Nc1cc(Cl)nc2c1cnn2[C@@H]1O[C@H](COP(=O)(O)CP(=O)(O)O)[C@@H](O)[C@H]1O)c1ccccc1F | SNB-75 CNS | > 100 µM |
| CC(C)OC(=O)[C@H](C)NP(=O)(OC[C@H]1O[C@@H](n2ccc(=O)[nH]c2=O)[C@](C)(F)[C@@H]1O)Oc1ccccc1 (stereo partly drawn) | SNB-75 CNS | > 100 µM |
| CC1=C(/C=C/C(C)=C/C=C/C(C)=C/C(=O)OC2CC(n3cc(F)c(=O)[nH]c3=O)OC2CO)C(C)(C)CCC1 (stereo not drawn) | SNB-75 CNS | 18.6 µM |
| CCOC(=O)NNC(=O)NCCCCNC(=O)NNC(=O)OCC | SNB-75 CNS | > 100 µM |
| CN(C)C(=S)Sc1ccc([N+](=O)[O-])cc1[N+](=O)[O-] | SNB-75 CNS | 20.5 µM |
| CN1CC[C@@H](c2c(O)cc(O)c3c(=O)cc(-c4ccc(C(F)(F)F)cc4Cl)oc23)[C@@H]1CO | SNB-75 CNS | 22 µM |
| COC(=O)C1=C(C(=O)OC)C2=S(SC3=C2CCCC3)S1 (stereo not drawn) | SNB-75 CNS | 62.7 µM |
| O=C1NC(N/N=C\C(O)C(O)C(O)C(O)CO)=N/C1=C/c1ccc(Cl)cc1 (stereo not drawn) | SNB-75 CNS | > 100 µM |
| CC1CN=C(N(C(=O)Nc2ccccc2)c2ccc(Cl)c(Cl)c2)S1 (stereo not drawn) | SNB-75 CNS | > 100 µM |
| C[N+](C)(C)CC1CCC/C1=N\OC(=O)c1ccccc1 (stereo not drawn) | SNB-75 CNS | > 100 µM |
| CCOC(=O)c1c(-c2ccc(OC)cc2)c(C#N)c2c(C#N)c(N)nn2c1N | SNB-75 CNS | 7.59 µM |
| Cc1cc(C(F)(F)F)cc(-n2nc(NS(=O)(=O)c3cc(C)c(Cl)cc3S)nc2N)n1 | SNB-75 CNS | > 100 µM |
| C=CCC1(CN(C)C)CC/C(=C\c2ccc(Cl)cc2)C1=O (stereo not drawn) | SNB-75 CNS | > 90.3 µM |
| Oc1cn(-c2ccc(Cl)cc2)nc1-c1n[nH]c(=S)n1-c1ccccc1 | SNB-75 CNS | > 100 µM |
| CS(=O)(=O)Nc1cc(-c2ccc3ncnc(Nc4c(Cl)ccc5c4OCO5)c3c2)cnc1Cl | SNB-75 CNS | 0.0972 µM |
| CC1C=CN(N(C)C)C2=C1C(=O)c1cnccc1C2=O (stereo not drawn) | SNB-75 CNS | 0.868 µM |
| O=C(O)c1ccc(C(=O)O)c2c(C(=O)O)ccc(C(=O)O)c12 | SNB-75 CNS | > 100 µM |
